Cited source: patent US10131648B2

target: human GPR40 (Homo sapiens (Human), UniProt O14842); experiment: GPR40 Calcium Flux Assay; conditions: transfected HEK293 cells stably expressing human GPR40; Ca2+ mobilization; mean data; read-out: hGPR40 Ca^2+ Assay EC50
Sequence (O14842 whole entry): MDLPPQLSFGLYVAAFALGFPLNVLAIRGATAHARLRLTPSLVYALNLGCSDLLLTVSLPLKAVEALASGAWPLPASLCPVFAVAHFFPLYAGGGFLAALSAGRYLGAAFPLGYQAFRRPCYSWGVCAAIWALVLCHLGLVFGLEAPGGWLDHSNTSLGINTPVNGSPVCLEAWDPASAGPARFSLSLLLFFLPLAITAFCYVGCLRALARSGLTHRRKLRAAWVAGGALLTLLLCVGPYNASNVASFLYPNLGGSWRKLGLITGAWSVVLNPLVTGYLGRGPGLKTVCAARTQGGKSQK
Exercise: for every item that follows, state its recorded pEC50.
Numbers only, as −log10 of the molar value.

For every listed record, write down its pEC50.
1. CC#C[C@H](CC(=O)O)c1ccc(OCc2ccc3scc(-c4ccc(OCC5CCOCC5)cc4C)c3c2)nc1
2. CC#C[C@@H](CC(=O)O)c1ccc(OCc2ccc3scc(-c4ccc(OCC5CCS(=O)(=O)CC5)cc4C)c3c2)nc1
3. CC#C[C@H](CC(=O)O)c1ccc(OCc2ccc3scc(-c4ccc(OCCC(C)(C)O)cc4C)c3c2)nc1
4. CCOCCOc1ccc(-c2csc3ccc(COc4ccc([C@]5(CC(=O)O)C[C@@H](O)C5)cc4)cc23)c(C)c1
5. CC#C[C@@H](CC(=O)O)c1ccc(OCc2ccc3scc(-c4cc(OCCOC)ccc4C)c3c2)cc1
6. CC#C[C@@H](CC(=O)O)c1ccc(COc2ccc3scc(-c4c(C)cccc4C)c3c2)cc1
7. CC#C[C@@H](CC(=O)O)c1ccc(OCc2ccc3scc(-c4ccc(OCCC(C)(C)O)cc4C)c3c2)nc1

[5.88, 8.15, 6.30, 7.59, 7.96, 7.70, 7.92]

* * *

molecular target: human GPR40 (Homo sapiens (Human), UniProt O14842); assay: GPR40 Calcium Flux Assay; conditions: transfected HEK293 cells stably expressing human GPR40; Ca2+ mobilization; mean data; read-out: hGPR40 Ca^2+ Assay EC50
endpoint: EC50

Past entries and their recorded results:
CC#C[C@H](CC(=O)O)c1ccc(OCc2ccc3scc(-c4ccc(OCC5CCS(=O)(=O)CC5)cc4C)c3c2)nc1 [Cpd 74]
180 nM
Cc1ccccc1-c1csc2ccc(COc3ccc(C4(CC(=O)O)CC(=O)C4)cc3)cc12 [Cpd 30]
6 nM

From here, focus on the item given below.
Could you share which EC50 value was measured for CC#C[C@@H](CC(=O)O)c1ccc(OCc2ccc3scc(-c4ncccc4OC)c3c2)cc1 [Cpd 91] ? 17 nM

* * *

target: human GPR40 (Homo sapiens (Human)); test: GPR40 Calcium Flux Assay; settings: transfected HEK293 cells stably expressing human GPR40; Ca2+ mobilization; mean data; read-out: hGPR40 Ca^2+ Assay EC50
Exercise: for every item that follows, state its recorded pEC50.
One number for each entry, as −log10 of the molar value.

Past entries and their recorded results:
CC#CC(CC(=O)O)c1ccc(OCc2ccc3scc(-c4ccc(OCC(O)CO)cc4C)c3c2)nc1 (centres unmarked)
8.00
CC#C[C@@H](CC(=O)O)c1ccc(OCc2ccc3scc(-c4ccc(CC5CCNCC5)cc4C)c3c2)cc1
8.40
CC#C[C@@H](CC(=O)O)c1ccc(OCc2ccc3scc(-c4ccc(O)cc4C)c3c2)cc1
8.15
Cc1ncccc1-c1csc2ccc(COc3ccc([C@]4(CC(=O)O)C[C@@H](O)C4)cc3)cc12
7.34

For every listed record, write down its pEC50.
1. CC#C[C@@H](CC(=O)O)c1ccc(COc2ccc3scc(-c4ccc(OCC5CCS(=O)(=O)CC5)cc4C)c3c2)cc1
2. CC#C[C@@H](CC(=O)O)c1ccc(OCc2ccc3scc(-c4ccccc4Br)c3c2)cc1

7.85
8.30

For every listed record, write down its pEC50.
1. CC#C[C@@H](CC(=O)O)c1ccc(OCc2ccc3scc(-c4ccc(OCC5CCS(=O)(=O)CC5)cc4C)c3c2)cc1
2. CC#C[C@@H](CC(=O)O)c1ccc(OCc2ccc3scc(-c4ccc(OCCC(C)(C)O)cc4C)c3c2)cc1

1: 8.22; 2: 8.05
